Listed here are molecules together with their documented pKi.
Measured Target: UniProtKB P30989
Sequence (P30989 whole entry): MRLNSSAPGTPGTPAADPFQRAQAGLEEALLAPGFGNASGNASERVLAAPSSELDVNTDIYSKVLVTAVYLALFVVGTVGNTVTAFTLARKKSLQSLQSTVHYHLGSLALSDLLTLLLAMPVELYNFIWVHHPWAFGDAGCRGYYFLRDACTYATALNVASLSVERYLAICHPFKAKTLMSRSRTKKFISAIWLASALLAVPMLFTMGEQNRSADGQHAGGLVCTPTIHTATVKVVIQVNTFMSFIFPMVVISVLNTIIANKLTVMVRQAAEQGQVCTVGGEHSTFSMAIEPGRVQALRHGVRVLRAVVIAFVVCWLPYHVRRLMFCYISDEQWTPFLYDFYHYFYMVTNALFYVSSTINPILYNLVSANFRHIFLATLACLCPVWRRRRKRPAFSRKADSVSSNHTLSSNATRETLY
Assay Overview: Displacement of [125I]-neurotensin from human recombinant NTS1 stably expressed in CHO-K1 cell membranes incubated for 60 mins by gamma counter method
pKi: −log10 of the molar value. Numbered stars: 1 amine (or outer) side, 2 acyl side, 3 side chain; on linkers, the order of the positions; unused ones are H or OH. Square brackets hold non-standard residues; d marks the D form. Peptide text beside a SMILES is read from it. X1 = O=C1[C@@H](N[*:1])Cc2ccccc2CN1CCC(=O)[*:2]; Dmt = Cc1cc(O)cc(C)c1C[C@H](N)C(=O)O; mTyr = N[C@@H](Cc1cccc(O)c1)C(=O)O; Tle = CC(C)(C)[C@H](N)C(=O)O
Parameter: pKi

[[record]]
molecule = "Cc1cc(O)cc(C)c1C[C@H](NC(=O)[C@@H]1CCCN1C(=O)[C@H](CCCNC(=N)N)NC(=O)[C@H](CCCNC(=N)N)NC(=O)CCN1Cc2ccccc2C[C@H](NC(=O)[C@@H](CCCNC(=N)N)NC(=O)[C@@H](N)Cc2c(C)cc(O)cc2C)C1=O)C(=O)N[C@H](C(=O)N[C@@H](CC(C)C)C(=O)O)C(C)(C)C (H-[Dmt][dR][X1]RRP[Dmt][Tle]L-OH)"
observed_value = 9.11

[[record]]
molecule = "Cc1cc(O)cc(C)c1C[C@H](NC(=O)[C@@H]1CCCN1C(=O)[C@H](CCCNC(=N)N)NC(=O)[C@@H](N)CCCNC(=N)N)C(=O)N[C@H](C(=O)N[C@@H](CC(C)C)C(=O)O)C(C)(C)C"
observed_value = 7.87

[[record]]
molecule = "Cc1cc(O)cc(C)c1C[C@H](N)C(=O)N[C@H](CCCNC(=N)N)C(=O)N[C@H]1Cc2ccccc2CN(CCC(=O)N[C@@H](CCCNC(=N)N)C(=O)N[C@@H](CCCNC(=N)N)C(=O)N2CCC[C@H]2C(=O)N[C@@H](Cc2cccc(O)c2)C(=O)N[C@H](C(=O)N[C@@H](CC(C)C)C(=O)O)C(C)(C)C)C1=O (H-[Dmt][dR][X1]RRP[mTyr][Tle]L-OH)"
observed_value = 7.91

